Property: half-life; scope: individual molecules
- Measurement Protocol: Half life in mouse liver microsomes in presence of NADPH by LC-MS/MS analysis
- Format: ADME, microsome

# count of solved cases: 2
O=C1NC(=S)N2C(=O)C3Nc4cc(Cl)cc(Cl)c4C3C=C12 (stereo not drawn) = > 1.67 h
CS(=O)(=O)Nc1cccc(-c2nc(/C=C3\SC(=S)NC3=O)cs2)c1 = < 0.0833 h

# context switch: different molecule, same half-life
Sure, the documented half-life for N=C1NC(=O)/C(=C/c2csc(-c3ccc(C(F)(F)F)cc3)n2)S1 is > 1.67 h

Taken from ChEMBL document CHEMBL4028814.
